biological target: PIM2 (Homo sapiens); assay: KinaseGlo Pim2 ATP depletion assay; format: biochemical
Sequence (Q9P1W9 whole entry): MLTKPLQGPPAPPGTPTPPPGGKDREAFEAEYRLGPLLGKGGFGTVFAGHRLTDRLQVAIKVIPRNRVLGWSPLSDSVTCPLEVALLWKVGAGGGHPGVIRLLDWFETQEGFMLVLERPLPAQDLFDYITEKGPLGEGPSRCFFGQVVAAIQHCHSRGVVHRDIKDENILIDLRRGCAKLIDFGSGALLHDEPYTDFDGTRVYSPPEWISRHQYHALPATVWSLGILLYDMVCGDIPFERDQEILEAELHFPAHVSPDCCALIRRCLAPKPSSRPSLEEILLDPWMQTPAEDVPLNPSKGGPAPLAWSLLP
measurementLabel: log10 IC50 (log10 of the value in nM)

molecule: O=C(Nc1cnccc1[C@H]1C[C@H](Cl)[C@H](O)[C@@H](CCl)O1)c1ccc(F)c(-c2c(F)cccc2F)n1
log10 IC50: 2.00
//
molecule: C[C@H]1O[C@@H](c2ccncc2NC(=O)c2cccc(-c3ccccc3F)n2)C[C@@H](O)[C@]1(C)O
log10 IC50: 1.20
//
molecule: Nc1cnc(-c2c(F)cccc2F)nc1C(=O)Nc1cnccc1[C@@H]1C[C@H](O)[C@]2(O)CCC[C@@H]2O1
log10 IC50: 3.44
//
molecule: Nc1cnc(-c2c(F)cccc2F)nc1C(=O)Nc1cnccc1[C@H]1C[C@@H](O)[C@H](O)[C@@H](C2CC2)O1
log10 IC50: 0.78
//
molecule: C=C[C@H]1OC(c2ccncc2NC(=O)c2ccnc(-c3c(F)cccc3F)n2)=C[C@@H](O)[C@@H]1O
log10 IC50: 1.61
//
molecule: C=C[C@H]1O[C@@H](c2ccncc2NC(=O)c2nc(-c3c(F)cccc3F)ncc2N)C[C@@H](O)[C@@H]1O
log10 IC50: 1.35
//
molecule: C[C@H]1OC(c2ccncc2NC(=O)c2nc(-c3c(F)cccc3F)ncc2N)=C[C@@H](O)[C@]1(C)O
log10 IC50: 0.15
//
molecule: O=C(Nc1cnccc1[C@@H]1C[C@H](O)[C@@H](O)[C@H](C2CC2)O1)c1cccc(-c2c(F)cccc2F)n1
log10 IC50: 1.53
//
molecule: N#C[C@H]1O[C@@H](c2ccncc2NC(=O)c2nc(-c3c(F)cccc3F)c(F)cc2N)C[C@@H](O)[C@@H]1O
log10 IC50: 0.70
//
molecule: C[C@@H]1OC(c2ccncc2NC(=O)c2nc(-c3c(F)cccc3F)ncc2N)=C[C@H](O)[C@@]1(C)O
log10 IC50: 1.60
//
molecule: CC[C@]1(O)[C@H](O)C[C@H](c2ccncc2NC(=O)c2nc(-c3ccccc3)ncc2N)O[C@@H]1C
log10 IC50: 1.46
//
molecule: CC[C@H]1O[C@@H](c2ccncc2NC(=O)c2ccc(F)c(-c3c(F)cccc3F)n2)C[C@@H](O)[C@@H]1O
log10 IC50: 0.60
//
molecule: C[C@H]1O[C@@H](c2ccncc2NC(=O)c2nc(-c3ccccc3)ncc2N)C[C@@H](O)[C@]1(C)O
log10 IC50: 1.64
//
molecule: CC[C@@H]1O[C@H](c2ccncc2NC(=O)c2nc(-c3c(F)cccc3F)c(F)cc2N)C[C@H](O)[C@@]1(C)O
log10 IC50: 1.83
//
molecule: Nc1ncc(-c2ccccc2)nc1C(=O)Nc1cnccc1[C@H]1C[C@@H](O)[C@H](O)[C@@H](CCl)O1
log10 IC50: 0.90
//
molecule: N#CC[C@H]1O[C@@H](c2ccncc2NC(=O)c2nc(-c3c(F)cccc3F)c(F)cc2N)C[C@@H](O)[C@@H]1O [Example 139]
log10 IC50: 0.70
//
molecule: C[C@H]1[C@H](O)C[C@H](c2ccncc2NC(=O)c2csc(-c3c(F)cccc3F)n2)O[C@@H]1C (stereo in doubt)
log10 IC50: 3.34
//
molecule: Nc1ncc(-c2ccccc2)nc1C(=O)Nc1cnccc1[C@@H]1C[C@H](O)[C@]2(O)CCC[C@@H]2O1
log10 IC50: 3.50
//
molecule: C[C@@H]1O[C@H](c2ccncc2NC(=O)c2ccc(F)c(-c3c(F)cccc3F)n2)C[C@H](O)[C@]1(O)CO
log10 IC50: 1.00
//
molecule: CC(C)NC(=O)c1ccc(F)c(-c2ccc(N)c(C(=O)Nc3cnccc3[C@@H]3C[C@@H](O)[C@](C)(O)[C@@H](C)O3)n2)c1F
log10 IC50: 0.30
//
molecule: CC(C)NC(=O)c1ccc(F)c(-c2nc(C(=O)Nc3cnccc3[C@H]3C[C@@H](O)[C@](C)(O)[C@@H](C)O3)ccc2F)c1
log10 IC50: 1.70
//
molecule: CC[C@]1(O)[C@H](O)C[C@H](c2ccncc2NC(=O)c2nc(-c3ccncc3F)ccc2N)O[C@@H]1C
log10 IC50: 1.54
//
molecule: N#CC[C@H]1O[C@@H](c2ccncc2NC(=O)c2ccc(F)c(-c3c(F)cccc3F)n2)CC[C@@H]1O
log10 IC50: 2.17
//
molecule: O=C(Nc1cnccc1[C@@H]1C[C@H](O)CCO1)c1csc(-c2c(F)cccc2F)n1
log10 IC50: 3.37
//
molecule: CC[C@H]1O[C@@H](c2ccncc2NC(=O)c2c[nH]cc(-c3ccccc3)c2=O)C[C@@H](O)[C@@H]1O
log10 IC50: 4.07
